Target: T1, human IL-6 (human, UniProt P05231 30-212)
T1 construct: IL-6 flowed over captured antibodies
T1 sequence (P05231 30-212 limits assumed): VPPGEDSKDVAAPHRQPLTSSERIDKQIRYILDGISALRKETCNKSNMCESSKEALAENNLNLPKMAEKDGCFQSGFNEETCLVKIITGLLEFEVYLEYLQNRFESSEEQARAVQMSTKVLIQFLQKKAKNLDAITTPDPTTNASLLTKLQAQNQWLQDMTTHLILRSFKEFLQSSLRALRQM
Assay: SPR Biacore, supernatant Ab on Protein A chip, 37 C
Method: Antibodies were captured on a Protein A chip (GE) by injecting 1:20 cell supernatant dilutions at 10 μL/min for 60 seconds. […] The sensor chip was regenerated by a 60 seconds injection of 10 mM Glycine pH 1.7 at the flow rate of 50 μL/min. […] For this setup, 1 μg/mL of purified antibody was injected over a Protein A chip at 10 μL/min for 25 seconds. […] The sensor chip was regenerated by a 60 seconds injection of 10 mM Glycine pH 1.7 at flow rate of 50 μL/min. […]
pKd: −log10 of the molar value.
Measure: pKd

binder="anti-IL-6 antibody, heavy chain I51Y, G66D / light chain M32L, M50D, N52S, M88Q (antibody, IgG1, V domains shown, Full IgG1 (Expi293); VL = variant III) VH: EVQLVESGGGLVQPGGSLRLSCAASGFTFSPFAMSWVRQAPGKGLEWVAKYSPGGSWTYYSDTVTDRFTFSLDTSKSTAYLQMNSLRAEDTAVYYCARQLWGYYALDIWGQGTLVTVSS VL: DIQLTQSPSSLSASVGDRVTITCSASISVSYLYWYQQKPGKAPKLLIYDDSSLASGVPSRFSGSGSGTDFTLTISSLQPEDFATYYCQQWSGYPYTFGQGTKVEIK" value_observed=8.39
binder="anti-IL-6 antibody, heavy chain S35Q, G66D / light chain M32L, M50D, N52S, M88Q (antibody, IgG1, V domains shown, Full IgG1 (Expi293); VL = variant III) VH: EVQLVESGGGLVQPGGSLRLSCAASGFTFSPFAMQWVRQAPGKGLEWVAKISPGGSWTYYSDTVTDRFTFSLDTSKSTAYLQMNSLRAEDTAVYYCARQLWGYYALDIWGQGTLVTVSS VL: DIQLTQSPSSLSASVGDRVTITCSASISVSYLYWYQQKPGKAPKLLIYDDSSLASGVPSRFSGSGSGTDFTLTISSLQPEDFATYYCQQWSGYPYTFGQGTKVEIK" value_observed=9.52
binder="anti-IL-6 antibody, heavy chain T63D, G66D / light chain M32L, M50D, N52S, M88Q (antibody, IgG1, V domains shown, Full IgG1 (Expi293); VL = variant III) VH: EVQLVESGGGLVQPGGSLRLSCAASGFTFSPFAMSWVRQAPGKGLEWVAKISPGGSWTYYSDDVTDRFTFSLDTSKSTAYLQMNSLRAEDTAVYYCARQLWGYYALDIWGQGTLVTVSS VL: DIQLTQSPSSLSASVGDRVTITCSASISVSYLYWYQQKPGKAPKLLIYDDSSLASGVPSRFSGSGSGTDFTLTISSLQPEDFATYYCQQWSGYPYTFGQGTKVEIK" value_observed=9.60
